- System: T-47D breast
- protocol_summary: NCI tumour cell line growth inhibition, 48 h
# GI50 values compiled below
measured_property: GI50

# compound, measurement_target, measured_property, result
rows = [
    ("CC1SC(c2cccc(Oc3ccccc3)c2)N(CCc2cccs2)C1=O (centres undefined)", "T-47D breast", "GI50", "0.594 µM"),
    ("Oc1ccc(-c2nc(-c3ccc4oc5ccc(-c6[nH]c(-c7ccc(O)cc7)nc6-c6ccccc6)cc5c4c3)c(-c3ccccc3)[nH]2)cc1", "T-47D breast", "GI50", "4.66 µM"),
    ("CN(C)CCCn1c2c(c3ccncc3c1=O)C(=O)c1ccccc1-2", "T-47D breast", "GI50", "1.67 µM"),
    ("COc1ccc(-c2nccn2-c2cc(OC)c(OC)c(OC)c2)cc1", "T-47D breast", "GI50", "9.55 µM"),
    ("C=C1C(=O)O[C@H]2[C@H]1CC/C(Cn1cc(CNC(=O)c3cc4ccccc4[nH]3)nn1)=C\\CC[C@@]1(C)O[C@@H]21", "T-47D breast", "GI50", "3.55 µM"),
    ("CCOC(=O)C(Cc1ccc(N(CCCl)CCCl)cc1)NC(=O)C(CC(C)C)NC(C)=O (centres undefined)", "T-47D breast", "GI50", "0.642 µM"),
    ("CNCc1ccc(C)c(NC(=O)c2ccc(Nc3nc(-c4ccccc4)c4ccccc4n3)cc2)c1", "T-47D breast", "GI50", "2.26 µM"),
    ("Cc1nn(-c2ccccc2)c2ncc3c(c12)C(=O)N(Cc1ccccc1)C3=O", "T-47D breast", "GI50", "4.86 µM"),
    ("COc1cc2c(cc1Nc1nc(Nc3ccsc3C(N)=O)c3cc[nH]c3n1)N(C(=O)CN(C)C)CCC2", "T-47D breast", "GI50", "3.87 µM"),
]
